- test_details: Side Effect to Circulatory System (normal awakened rats, tail-cuff method)
- Format: in vivo
- details: 30 mg/kg/10 ml orally, before and 2 hours after administration
readout_type: Systolic blood pressure-changing rate

compound=O=C(NCCCc1ccc(-c2ccc(=O)[nH]n2)cc1)c1cccnc1 readout_type="Systolic blood pressure-changing rate" observed_measurement="0 Δ%"
compound="CC1CC(=O)NN=C1c1ccc(CCNC(=O)c2cccnc2)cc1 (stereo not drawn) [Known compound, reference compound]" readout_type="Systolic blood pressure-changing rate" observed_measurement="-7 Δ%"
compound=Nc1ncccc1C(=O)NCCCCc1ccc(-c2ccc(=O)[nH]n2)cc1 readout_type="Systolic blood pressure-changing rate" observed_measurement="1 Δ%"
compound=Cc1ncccc1C(=O)NCCCCc1ccc(-c2ccc(=O)[nH]n2)cc1 readout_type="Systolic blood pressure-changing rate" observed_measurement="-2 Δ%"
compound=O=C(NCCCCc1ccc(-c2ccc(=O)[nH]n2)cc1)c1cccnc1 readout_type="Systolic blood pressure-changing rate" observed_measurement="-2 Δ%"
compound=O=C(NCCCOc1ccc(-c2ccc(=O)[nH]n2)cc1)c1cccnc1 readout_type="Systolic blood pressure-changing rate" observed_measurement="0 Δ%"

----------
- test_details: Antinephritic Action (protein excretion inhibition in nephritis induced with nephrotoxic serum (NTS))
- Format: in vivo, male WKY rats
- details: 30 mg/kg/10 ml orally twice a day for 8 days; urine collected for 24 hours on the seventh day; 6 rats per group
readout_type: Inhibition rate (protein excretion-inhibiting rate) (%)

compound=O=C(NCCCOc1ccc(-c2ccc(=O)[nH]n2)cc1)c1cccnc1 observed_measurement=89.0
compound=O=C(NCCCCc1ccc(-c2ccc(=O)[nH]n2)cc1)c1cccnc1 observed_measurement=82.5
compound="Nc1ncccc1C(=O)NCCCCc1ccc(-c2ccc(=O)[nH]n2)cc1 [Example 33]" observed_measurement=85.7
compound=Cc1ncccc1C(=O)NCCCCc1ccc(-c2ccc(=O)[nH]n2)cc1 observed_measurement=64.3
compound=C=CS(=O)(=O)NCCCc1ccc(-c2ccc(=O)[nH]n2)cc1 observed_measurement=74.6
compound="Nc1ncccc1C(=O)NCCCCc1ccc(-c2ccc(=O)[nH]n2)cc1 [Example 70]" observed_measurement=74.1
compound=Cl.O=C(NCCCCc1ccc(-c2ccc(=O)[nH]n2)cc1)c1cccnc1 observed_measurement=82.2

----------
- test_details: Side Effect to Circulatory System (normal awakened rats, tail-cuff method)
- Assay type: in vivo
- details: 30 mg/kg/10 ml orally, before and 2 hours after administration
readout_type: Heart rate-changing rate

compound=O=C(NCCCOc1ccc(-c2ccc(=O)[nH]n2)cc1)c1cccnc1 readout_type="Heart rate-changing rate" observed_measurement="1 Δ%"
compound=O=C(NCCCc1ccc(-c2ccc(=O)[nH]n2)cc1)c1cccnc1 readout_type="Heart rate-changing rate" observed_measurement="7 Δ%"
compound="CC1CC(=O)NN=C1c1ccc(CCNC(=O)c2cccnc2)cc1 (stereo not drawn) [Known compound, reference compound]" readout_type="Heart rate-changing rate" observed_measurement="18 Δ%"
compound=O=C(NCCCCc1ccc(-c2ccc(=O)[nH]n2)cc1)c1cccnc1 readout_type="Heart rate-changing rate" observed_measurement="3 Δ%"
compound=Nc1ncccc1C(=O)NCCCCc1ccc(-c2ccc(=O)[nH]n2)cc1 readout_type="Heart rate-changing rate" observed_measurement="2 Δ%"
compound=Cc1ncccc1C(=O)NCCCCc1ccc(-c2ccc(=O)[nH]n2)cc1 readout_type="Heart rate-changing rate" observed_measurement="5 Δ%"
